# Read-out: Monokine induced gamma interferon (MIG), CXCL9 (gene 4283)
# ASSAY_NOTES: BSK_CASM3C_MIG: BioMAP Diversity Plus: CASM3C Assay for Monokine induced gamma interferon (MIG) Biomarker Activity (AID 2283048);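 also: MIG protein level measured by ELISA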
# EXPERIMENTAL_SETUP: primary human coronary artery smooth muscle cells; actives raise or lower the signal
Active and inactive are the calls of the source. The calls were made as follows: active = hit-call score of the fitted dose curve at least 0.9, where 1 is the maximum; inactive = score below 0.9.
Classes used: yes (1) = active, no (0) = inactive

COMPOUND	CATEGORY_LABEL
CC(C)C(=O)Nc1ccc([N+](=O)[O-])c(C(F)(F)F)c1	no (0)
FC(F)C(F)(F)COCC1CO1 (centres undefined)	no (0)
Cc1nccn1-c1ccc(Sc2cccc(C3(C(N)=O)CCOCC3)c2)cc1	yes (1)
COS(C)(=O)=O	no (0)
Cc1nc(-c2ccccn2)ncc1C(=O)Nn1cc(C)c2cc(F)ccc21	no (0)
OCc1ccccc1	no (0)
NNC(=O)c1ccncc1	no (0)
O=S1(=O)CCCO1	no (0)
CNC(C)=O	no (0)
O=C(NO)C1(NS(=O)(=O)c2ccc(Oc3ccc(F)cc3)cc2)CCOCC1	no (0)
CCCCOC(=O)c1ccccc1	no (0)
OCC(CO)(CO)CO	no (0)
Cc1cccc(O)c1C	no (0)
OC[C@H]1O[C@@](CO)(O[C@H]2O[C@H](CO)[C@@H](O)[C@H](O)[C@H]2O)[C@@H](O)[C@@H]1O	no (0)
